target: human TRPV4 (Homo sapiens, UniProt Q9HBA0); construct: host or cells: tetracycline-inducible Flp-In T-REx 293 cells; assay: Hypotonicity-induced Ca2+ influx (Fluo-4, FDSS); format: cell-based; conditions: Flp-In T-REx 293 cells stably expressing human TRPV4, compounds listed by potency bin (<10 nM Tables 96-1/96-2, <3 nM Table 97)
Sequence (Q9HBA0 whole entry): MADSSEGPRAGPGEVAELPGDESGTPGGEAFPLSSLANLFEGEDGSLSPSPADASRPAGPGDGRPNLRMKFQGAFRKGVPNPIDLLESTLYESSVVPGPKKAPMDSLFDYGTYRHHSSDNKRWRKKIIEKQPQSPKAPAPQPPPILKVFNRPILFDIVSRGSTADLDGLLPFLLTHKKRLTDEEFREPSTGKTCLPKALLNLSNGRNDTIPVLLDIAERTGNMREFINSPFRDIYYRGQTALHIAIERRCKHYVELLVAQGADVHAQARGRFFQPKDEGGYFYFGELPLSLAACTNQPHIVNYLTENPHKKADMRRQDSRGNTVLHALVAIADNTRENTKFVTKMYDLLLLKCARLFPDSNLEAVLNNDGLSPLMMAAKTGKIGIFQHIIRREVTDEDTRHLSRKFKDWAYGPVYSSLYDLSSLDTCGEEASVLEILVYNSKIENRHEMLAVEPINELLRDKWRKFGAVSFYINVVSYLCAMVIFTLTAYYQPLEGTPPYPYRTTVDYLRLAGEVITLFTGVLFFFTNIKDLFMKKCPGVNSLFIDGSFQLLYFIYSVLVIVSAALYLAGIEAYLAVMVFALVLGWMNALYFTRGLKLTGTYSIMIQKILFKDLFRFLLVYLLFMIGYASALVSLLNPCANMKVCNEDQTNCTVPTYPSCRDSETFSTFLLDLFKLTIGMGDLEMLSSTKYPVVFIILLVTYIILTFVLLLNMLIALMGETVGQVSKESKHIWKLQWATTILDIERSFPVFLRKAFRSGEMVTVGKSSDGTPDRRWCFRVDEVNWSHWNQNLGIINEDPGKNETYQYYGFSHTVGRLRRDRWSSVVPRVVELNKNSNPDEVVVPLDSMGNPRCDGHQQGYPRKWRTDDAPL
pIC50: −log10 of the molar value.
assay-metric: pIC50

Sample answers from the record:
compound: O=C([C@H](O)c1cccc(Cl)c1)N1CCCc2nc(C3(c4cccc(-c5csc6ccccc56)c4)CC3)[nH]c(=O)c2C1
assay-metric: pIC50
recorded-measurement: > 8.52

compound: CC(C)c1cccc(C2(c3nc4c(c(=O)[nH]3)CN(C(=O)[C@H](O)c3cccc(C5=CCCC5)c3)CCC4)CC2)c1
assay-metric: pIC50
recorded-measurement: > 8.52

compound: CC(C)c1csc(C2(c3nc4c(c(=O)[nH]3)CN(C(=O)C(O)c3cccc(-c5cccc(OC(F)(F)F)c5)c3)CCC4)CC2)c1 (stereo not shown)
assay-metric: pIC50
recorded-measurement: > 8.00

Reported pIC50, compound O=C(Cc1cccc(C(F)(F)F)c1F)N1CCCc2nc(C3(c4ccccc4)CC3)[nH]c(=O)c2C1 : ____ > 8.00
